Task for the reader: assign each of the following sequences its reported apparent KD of MS2 coat protein.
# System: MS2 coat protein
# assay text: apparent KD of MS2 coat protein; designed switch direction (-1 OFF switch, 1 ON switch): -1; higher = weaker reporter binding
# condition summary: Eterna round: R95; input ligand: microRNA oligo, concentration not stated
Please answer using a numeric value trailed by its unit.

Value (apparent KD of MS2 coat protein, MS2 coat protein) for record CAUUUGUGAGGAUAUCAGGUGUGCUAGCGUACUGGUACAUCUGAGAAGGCACAUGAGGAUCACCCAUGUUUCUU [Mat - Exclusion 4 - Mod of JL - D37] (puzzle: Exclusion 4) = 15.9 nM

Per the reported MS2 coat protein data, UUUUUUGUUGUGAGGAUAUCGUUUUUGUUUUGGAUCGAGAAGGCACAUGAGGAUCACCCAUGUUUGUUGUGGUU [JR_BMOE4_Sub087] (puzzle: Brourd's mod of Exclusion 4) has apparent KD of MS2 coat protein of 78.3 nM

apparent KD of MS2 coat protein value, target or system MS2 coat protein, for CGGAUGUGAGGAUAUACAUGAGGAUCACCCAUGUGAGCCAGCUAGAUGACUGGCUCGUGUAGAAGGCACGUCUG [Mat - Exclusion 3 - Mod of JL D92] (puzzle: Exclusion 3) : 12.1 nM

Reported MS2 coat protein apparent KD of MS2 coat protein for item CUCCUGUAAGGAUAUCUGACAAGUGACGAAAGUCACAGUUCAGAGAAGGUACAUGAGGAUCACCCAUGUAGAAC [Exclusion 4 - Mod Brourd Ex 4-3: 41 v.2] (puzzle: Exclusion 4) was 31 nM

Lab note: sequence CAUGAUCUUCGGAUCAUGUACAUGAGGAUCACCCAUGUUACGAGUUGAUUUUCAUACAAGCUUUUUGCUCGUCUUAU [Sensor v3 - Turn-off variant 1 - 27] (puzzle: Sensor v3, turn-off variant 1) tested on MS2 coat protein; recorded apparent KD of MS2 coat protein was 330 nM

* * *

# Tested on: K4 kissing-loop RNA reporter;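 also: bound reporter read as fluorescence of individual clusters on recovered sequencing chips by microscopy, with normalized cluster intensities fitted with a binding model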
# assay text: apparent KD of K4 kissing-loop reporter; higher = weaker reporter binding
# condition summary: Eterna round: R107; input ligand: tryptophan 2.4 mM
property label: apparent KD of K4 kissing-loop reporter (µM)
Field format: number, assumed µM, no unit text.

apparent KD of K4 kissing-loop reporter measured on UAUCUAUGCUCGGCCGCCACUAGGACCGGGAUCUCUCUAGUGAUGUUAGUCUGAUCGGCCGCCACUAGGACCGGGAGUGUAGAUA [KL-SSTryp-B15 #DoubleAptamer] = 0.0803

The value of apparent KD of K4 kissing-loop reporter measured for the sequence UAUAUAGUGACGGCCGCCACUAUUGUGAUGUUAUUGUUAGAGUGAUGUUUUGUUGUUUAAUUUUGUAGGACCGGGUUAUAUGUUA [xxzsmullin] turned out to be 0.543

Record UGAUACCAGACUGAUACCAGCGAGUGAUGUUUGUUGAUCAUAAGCAGUCAAAGACUGCUUUGCCCUUGGCAGCAGUCUGGUAUCU [#11 K4 Theophylline B Exclusion] , field apparent KD of K4 kissing-loop reporter: 0.6

* * *

Could you please report measured apparent KD of MS2 coat protein for the items listed next?
# Test system: MS2 coat protein
# assay text: apparent KD of MS2 coat protein; designed switch direction (-1 OFF switch, 1 ON switch): -1; higher = weaker reporter binding
# condition summary: input ligand: FMN 200 uM

Recorded apparent KD of MS2 coat protein (sequence UUGCGGCAAGGAUAUACAUGAGGAUCACCCAUGUAGUAUUUGGUGCUGGCGAGCUGGUGUAGAAGGUGCACGCA [EX3 B.3] (Eterna round: R97, puzzle: Exclusion 3) ): 0.0212 µM

# apparent KD of MS2 coat protein of AAUUAGCAAGCGAGAUCUCACAUGAGGAUCACCCAUGUGCUCGUCUUAUAAGGUACUGUGACGAUAGUCACGGUACC [Mat - Sensor, turn-off var - Eli Mod - D39] (Eterna round: R97, puzzle: Sensor, turn-off variant 1) = 0.0132 µM

Reported apparent KD of MS2 coat protein of UAGUUACAUGAGGAUCACCCAUGUGAGGAUAUGAGUCAGUCACGGUGACGUGGCUGACUCAGAAGGCACAAUGG [Mat - Exclusion 1 - JL Mod - D45] (Eterna round: R97, puzzle: Exclusion 1) : 0.0774 µM

According to the records, this sequence CCUCCCUGAGGAUAUCCACCCUCAUACAUGAGGAUCACCCAUGUUCAUCCGUGGGUACCCGGAGAAGGCAGCUCUC [Megrez-c] (Eterna round: R97, puzzle: Exclusion 5) displays apparent KD of MS2 coat protein of 0.0808 µM

So, UCACUACCGCAAGGAUAUGUUGUCUGACACGCUGCGUGACAUGAGGAUCACCCAUGUGCUAGUUCGCAGAAGGUGCGGAAUGUG [Eternabot solution 34] (Eterna round: R96, puzzle: Exclusion NG 2) ? Its apparent KD of MS2 coat protein was 0.0632 µM

Reference source: the supplement of paper PMC9170038
